Please respond with reported IC50 for every item in the list.
Target: High affinity choline transporter 1 (Homo sapiens)
Sequence (Q9GZV3 whole entry): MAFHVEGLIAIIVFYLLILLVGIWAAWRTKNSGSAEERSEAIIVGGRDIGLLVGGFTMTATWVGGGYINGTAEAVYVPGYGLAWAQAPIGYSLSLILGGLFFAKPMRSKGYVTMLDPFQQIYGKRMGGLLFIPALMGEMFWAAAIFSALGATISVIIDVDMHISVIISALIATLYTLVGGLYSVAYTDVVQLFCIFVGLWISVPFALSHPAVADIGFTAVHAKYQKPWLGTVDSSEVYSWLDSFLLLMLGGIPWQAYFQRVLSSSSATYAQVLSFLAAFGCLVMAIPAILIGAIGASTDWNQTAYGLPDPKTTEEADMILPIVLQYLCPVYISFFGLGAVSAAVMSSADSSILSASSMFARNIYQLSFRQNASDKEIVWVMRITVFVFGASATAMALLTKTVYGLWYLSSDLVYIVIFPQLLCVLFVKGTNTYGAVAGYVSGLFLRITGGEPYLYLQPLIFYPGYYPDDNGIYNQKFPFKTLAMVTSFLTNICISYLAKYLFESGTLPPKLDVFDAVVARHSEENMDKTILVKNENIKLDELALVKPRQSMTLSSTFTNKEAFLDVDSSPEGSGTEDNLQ
Test: CHT inhibitors, dose response, cell-based, 5-point CRC, membrane potential dye (AID 504840)
Type: functional
The source made the active and inactive calls. How the calls were made is not given here.

Consider the molecule "N#C/C(=N/Nc1ccc(OC(F)(F)F)cc1)C(N)=S" and give its measured IC50.
7.16 µM (active)

Input Cc1ccc(NC(=O)c2ccc(CN3CC(=O)N4CCCCC4C3=O)cc2)c(C)c1 (centres undefined)
4.47 µM (active)

Next molecule: "COc1cccc(/C=C2\SC(=S)N(NC(=O)c3ccncc3)C2=O)c1"
12.6 µM (active)

What do you get for "O=[N+]([O-])/C(C(=C(Cl)Cl)N1CCN(Cc2ccccc2)CC1)=C1\NCCN1Cc1ccc(Cl)nc1" ?
6.15 µM (active)
